biological target: BChE (Equus caballus, UniProt P81908); assay: biochemical; format: biochemical
Sequence (P81908 whole entry): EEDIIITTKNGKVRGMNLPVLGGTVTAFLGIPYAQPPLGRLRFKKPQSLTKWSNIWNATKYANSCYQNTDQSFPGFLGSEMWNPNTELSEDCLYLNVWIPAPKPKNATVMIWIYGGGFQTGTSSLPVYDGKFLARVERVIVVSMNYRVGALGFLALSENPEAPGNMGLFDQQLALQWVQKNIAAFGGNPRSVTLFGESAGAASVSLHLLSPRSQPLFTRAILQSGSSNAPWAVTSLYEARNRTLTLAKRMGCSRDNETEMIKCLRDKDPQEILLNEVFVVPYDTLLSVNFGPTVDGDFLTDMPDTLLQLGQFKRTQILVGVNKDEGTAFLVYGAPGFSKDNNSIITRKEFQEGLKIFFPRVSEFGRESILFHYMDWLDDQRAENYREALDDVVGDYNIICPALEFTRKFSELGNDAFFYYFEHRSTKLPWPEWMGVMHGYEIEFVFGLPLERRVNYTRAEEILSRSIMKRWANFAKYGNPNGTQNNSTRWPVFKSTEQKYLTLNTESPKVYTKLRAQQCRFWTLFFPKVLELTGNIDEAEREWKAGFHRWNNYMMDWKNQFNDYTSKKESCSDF
Each entry falls into one class according to its IC50; the ranges are label 0 = under 60 nM, label 1 = from 60 nM up to 90 nM, label 2 = 90 nM and over

Below, 4 compounds whose answers are already recorded.
CCCN(CCC)C(=O)c1ccc2nc(-c3ccc[nH]3)oc2c1
label 0
CCN(CC)C(=O)c1ccc2nc(-c3cccc4ccccc34)oc2c1
label 2
CCCN(CCC)C(=O)c1ccc2nc(-c3cccc4ccccc34)oc2c1
label 2
CCCN(CCC)C(=O)c1ccc2nc(-c3ccco3)oc2c1
label 1

Which IC50 band matches O=C(c1ccc2nc(-c3ccco3)oc2c1)N1CCCC1 ?
label 2

Category of O=C(c1ccc2nc(-c3ccccc3)oc2c1)N1CCCC1 , please.
label 0

Kindly state the category for this compound: O=C(c1ccc2nc(-c3cccs3)oc2c1)N1CCCC1
label 1

Into which bin does this compound go? CCCN(CCC)C(=O)c1ccc2nc(-c3cccs3)oc2c1
label 1

Hi there! Could you help me figure out the category for CCN(CC)C(=O)c1ccc2nc(-c3ccc(-c4ccccc4)cc3)oc2c1 please?
label 1

Form: Item = CN(C)C(=O)c1ccc2nc(-c3ccco3)oc2c1 ; Class = ?
label 2

Form field 'band' for CCN(CC)C(=O)c1ccc2nc(-c3ccc[nH]3)oc2c1
label 0

Band assignment needed for O=C(c1ccc2nc(-c3ccc(-c4ccccc4)cc3)oc2c1)N1CCOCC1 please.
label 1

Category lookup for the compound CN(C)C(=O)c1ccc2nc(-c3cccs3)oc2c1
label 2

Entry CN(C)C(=O)c1ccc2nc(-c3cccc4ccccc34)oc2c1 belongs to which category?
label 2

Place this compound in its band: O=C(c1ccc2nc(-c3cccc4ccccc34)oc2c1)N1CCCC1
label 2

The entry to classify is CCCN(CCC)C(=O)c1ccc2nc(-c3ccncc3)oc2c1 ; which class holds it?
label 1

Would you mind sorting O=C(c1ccc2nc(-c3ccccc3)oc2c1)N1CCOCC1 into the appropriate category?
label 0

// bin(item) where item = O=C(c1ccc2nc(-c3cccs3)oc2c1)N1CCCCC1
label 1

Class? Entry: O=C(c1ccc2nc(-c3ccncc3)oc2c1)N1CCCCC1
label 0

# bin lookup: classify O=C(c1ccc2nc(-c3cccc4ccccc34)oc2c1)N1CCOCC1 by its IC50
label 1

* * *

In this section, each of the molecules is paired with its reported Selectivity index (AChE/BChE).
molecular target: AChE (Electrophorus electricus, UniProt O42275); assay: biochemical; format: biochemical; conditions: ratio AChE/BChE
Sequence (O42275 24-633): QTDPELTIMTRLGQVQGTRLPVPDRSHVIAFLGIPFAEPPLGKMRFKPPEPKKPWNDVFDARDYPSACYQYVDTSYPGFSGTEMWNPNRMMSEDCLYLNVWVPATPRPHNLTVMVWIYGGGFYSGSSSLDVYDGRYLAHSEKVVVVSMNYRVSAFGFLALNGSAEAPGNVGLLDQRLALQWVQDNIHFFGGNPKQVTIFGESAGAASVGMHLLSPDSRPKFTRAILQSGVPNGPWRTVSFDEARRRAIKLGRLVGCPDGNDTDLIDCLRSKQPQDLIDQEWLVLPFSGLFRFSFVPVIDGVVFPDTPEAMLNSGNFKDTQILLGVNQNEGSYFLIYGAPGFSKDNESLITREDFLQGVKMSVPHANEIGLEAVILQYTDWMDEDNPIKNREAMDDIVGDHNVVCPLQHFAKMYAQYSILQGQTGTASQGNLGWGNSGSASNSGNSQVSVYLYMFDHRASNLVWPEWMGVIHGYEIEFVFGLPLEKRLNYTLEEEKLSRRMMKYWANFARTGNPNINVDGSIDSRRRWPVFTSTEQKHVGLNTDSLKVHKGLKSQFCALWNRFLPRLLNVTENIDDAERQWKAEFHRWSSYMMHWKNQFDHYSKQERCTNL
// return just the number, without any unit appended

// below: answered molecules
O=C(c1ccc2nc(-c3ccncc3)oc2c1)N1CCOCC1
0.40
O=C(c1ccc2nc(-c3cccc4ccccc34)oc2c1)N1CCCCC1
0.29
CN(C)C(=O)c1ccc2nc(-c3ccncc3)oc2c1
1.28

Next molecule, please.
Indicate its recorded Selectivity index (AChE/BChE); the molecule in question is CCCN(CCC)C(=O)c1ccc2nc(-c3ccco3)oc2c1
0.59

* * *

target: AChE (Electrophorus electricus, UniProt O42275); assay: biochemical; assay type: biochemical; settings: from Lineweaver-Burk graphs; mean ± SD, triplicate
Attribute Measured: Ki (nM)
All answers are understood in nM, so give the number only.

# annotated cases, reported Ki shown
CCN(CC)C(=O)c1ccc2nc(-c3ccc(-c4ccccc4)cc3)oc2c1
19.8
O=C(c1ccc2nc(-c3cccc4ccccc34)oc2c1)N1CCCCC1
20.2

Give Ki for the following compound: O=C(c1ccc2nc(-c3ccccc3)oc2c1)N1CCCC1
46.5

Tell us which Ki value is on record for CCN(CC)C(=O)c1ccc2nc(-c3cccs3)oc2c1
15.7

For O=C(c1ccc2nc(-c3ccc(-c4ccccc4)cc3)oc2c1)N1CCOCC1 , write its Ki.
20.9

* * *

biological target: BChE (Equus caballus, UniProt P81908); test: biochemical; assay type: biochemical
Rule: measured IC50 below 60 nM gets label 1; anything equal to or greater than 60 nM gets label 0.

O=C(c1ccc2nc(-c3ccc(-c4ccccc4)cc3)oc2c1)N1CCCC1
label 0
O=C(c1ccc2nc(-c3cccs3)oc2c1)N1CCOCC1
label 1
CCN(CC)C(=O)c1ccc2nc(-c3ccncc3)oc2c1
label 0
CCCN(CCC)C(=O)c1ccc2nc(-c3ccc(-c4ccccc4)cc3)oc2c1
label 0
CN(C)C(=O)c1ccc2nc(-c3ccccc3)oc2c1
label 0
CN(C)C(=O)c1ccc2nc(-c3ccncc3)oc2c1
label 0
CN(C)C(=O)c1ccc2nc(-c3ccc(-c4ccccc4)cc3)oc2c1
label 0
CCN(CC)C(=O)c1ccc2nc(-c3ccccc3)oc2c1
label 0
CCCN(CCC)C(=O)c1ccc2nc(-c3ccccc3)oc2c1
label 0
CN(C)C(=O)c1ccc2nc(-c3ccc[nH]3)oc2c1
label 1

Is IC50 strictly under 60 nM for the entry O=C(c1ccc2nc(-c3ccncc3)oc2c1)N1CCCC1 ?
label 1

Consider the compound O=C(c1ccc2nc(-c3ccco3)oc2c1)N1CCCCC1 . Is its IC50 strictly less than 60 nM?
label 0

Problem: For the compound O=C(c1ccc2nc(-c3ccc[nH]3)oc2c1)N1CCCC1 , is IC50 under 60 nM?
label 1

* * *

biological target: AChE (Electrophorus electricus, UniProt O42275); assay: biochemical; format: biochemical; details: ratio AChE/BChE
Attribute Measured: Selectivity index (AChE/BChE)
Lab note: record the figure alone, no unit after it.

CN(C)C(=O)c1ccc2nc(-c3ccco3)oc2c1
0.37
CCN(CC)C(=O)c1ccc2nc(-c3ccncc3)oc2c1
1.53
O=C(c1ccc2nc(-c3ccccc3)oc2c1)N1CCOCC1
0.88
O=C(c1ccc2nc(-c3ccccc3)oc2c1)N1CCCCC1
0.25
O=C(c1ccc2nc(-c3ccc[nH]3)oc2c1)N1CCCCC1
0.27

For O=C(c1ccc2nc(-c3ccccc3)oc2c1)N1CCCC1 , write its Selectivity index (AChE/BChE).
1.27

* * *

molecular target: UniProtKB P81908; assay: biochemical; format: biochemical
IC50: recorded values
Answer in nM, number only, no unit symbol.

Check out these entries, answers already filled in.
O=C(c1ccc2nc(-c3ccc(-c4ccccc4)cc3)oc2c1)N1CCCCC1
58.9
O=C(c1ccc2nc(-c3ccncc3)oc2c1)N1CCOCC1
49.7
O=C(c1ccc2nc(-c3ccc[nH]3)oc2c1)N1CCCCC1
49.2
O=C(c1ccc2nc(-c3ccc[nH]3)oc2c1)N1CCOCC1
25.4

For the compound CCN(CC)C(=O)c1ccc2nc(-c3cccs3)oc2c1 , give its measured IC50 value.
75.4

Supply reported IC50 belonging to this compound: O=C(c1ccc2nc(-c3ccccc3)oc2c1)N1CCCCC1
61.2
